Known MBC of a selection of compounds
Tested on: Staphylococcus aureus
Test Description: Bactericidal activity against methicillin-resistant Staphylococcus aureus ATCC 43300 assessed as bacterial killing incubated for over night
Assay type: functional
Assay Endpoint: MBC

{"Smiles Data": "CCCCCCCCSSc1ccccn1", "Assay Endpoint": "MBC", "Data Value": "> 50 µM"}
{"Smiles Data": "CN[C@H](CC(C)C)C(=O)N[C@H]1C(=O)N[C@@H](CC(N)=O)C(=O)N[C@H]2C(=O)N[C@H]3C(=O)N[C@H](C(=O)N[C@H](C(=O)O)c4cc(O)cc(O)c4-c4cc3ccc4O)[C@H](O)c3ccc(c(Cl)c3)Oc3cc2cc(c3O[C@@H]2O[C@H](CO)[C@@H](O)[C@H](O)[C@H]2O[C@H]2C[C@](C)(N)[C@H](O)[C@H](C)O2)Oc2ccc(cc2Cl)[C@H]1O", "Assay Endpoint": "MBC", "Data Value": "0.78 µM"}
{"Smiles Data": "CCCCCCCCCSSc1ccccn1", "Assay Endpoint": "MBC", "Data Value": "> 50 µM"}
{"Smiles Data": "CCCCCCCSSc1ccccn1", "Assay Endpoint": "MBC", "Data Value": "> 50 µM"}

meta.source: ChEMBL document CHEMBL4715813
